Assay: Blood-brain barrier penetration, brain-to-plasma ratio in mouse
Type: in vivo
Conditions: CD-1 mouse, IV 1 mg/kg, 2 hour, n=3
ASSAY METRIC: Kp at 2 h
Enter the number alone.

> print(dat)
                                   compound  assay.metric  value
1  CN1CC[C@@H]1Cn1cc(C(=O)C2COc3ccc(Cl)cc3C2)c2ccc(-c3cn[nH]c3Cl)cc21 (stereo partly shown) [Compound 1-55]     Kp at 2 h    0.8

Query block: Quick one: Kp at 2 h for CCN(CC)CCn1cc(C(=O)C2COc3ccc(OC)cc3C2)c2ccc(-c3cn[nH]c3Cl)cc21 (stereo not shown) [Compound 3-17] ?
Result block: 0.92

Query block: Similarly, CN1CC[C@H]1Cn1nc(C(=O)C2COc3ccc(F)cc3C2)c2ccc(-c3c[nH]nc3F)cc21 (stereo partly shown) [Compound 5-56] ?
Result block: 10.2

Query block: Similarly, CNCCn1cc(C(=O)C2COc3ccc(OC)cc3C2)c2ccc(-c3cn[nH]c3F)cc21 (stereo not shown) [Compound 3-24] ?
Result block: 0.54

Hey, just so you know, these numbers are from patent US20240360139A1.
